Reference source: patent US20180291083A1

target: T1, HLA-A*02:01 (human); assay: UV ligand exchange ELISA; exchange yield grade
T1 construct: Peptide-receptive MHC class I monomer made by UV cleavage of a UV-sensitive ligand
observable: peptide exchange yield

Observe how each entry below is paired with its result.
>>> result("KLSDNILKL")
"> 75%"
>>> result("SLYVQQLKI")
"> 75%"

Summary for this binder, YLLPSVVLL : peptide exchange yield is > 75%

Looking up VMLQINPKL , I found its peptide exchange yield recorded as 50 to 75%

Entry YLNEKSLQL — recorded peptide exchange yield = > 75%
